Test: Absorption and distribution: concentration in blood and organs after oral administration, bioassay by cup method
Format: in vivo
Conditions: rat; rats, fasted, 10 mg/kg oral, kidney, 2 hr after administration; Mean ± S.D. (n=5); read-out: Concentration in organs: Kidney
Counter-ions that a name gives are not always drawn.
I'd be grateful if you could share measured concentration at 2 h for these entries.
Provide only the numeric value, understood in ng/g.

Problem: Dear colleague, please send me the reported concentration at 2 h for CCNCC1CCN(c2c(F)cc3c(=O)c(C(=O)O)cn(C4CC4)c3c2F)C1 (centres unmarked) [Example 2, hydrochloride] when you can.
Solution: 4660

Problem: State, in one line, measured concentration at 2 h of CCNCC1CCN(c2c(F)cc3c(=O)c(C(=O)O)cn(C4CC4)c3c2Cl)C1 (centres unmarked) [Example 13]
Solution: 2810
